VALUE_KIND: melting point

In [3]: df
Out[3]:
                                   compound  observed_value
0  [O-][S+](Cc1ccc(-c2noc(C(F)(F)F)n2)cn1)c1ccccc1 (stereo not drawn) [Compound 2.28]   116 to 120 °C
1  [O-][S+](Cc1ccc(-c2noc(C(F)(F)F)n2)cc1)c1ccccc1F (stereo not drawn) [Compound 2.17]   108 to 118 °C
2  [O-][S+](Cc1c(F)cc(-c2noc(C(F)(F)F)n2)cc1F)c1ccccc1 (stereo not drawn) [Compound 2.32]   120 to 125 °C
3  Fc1ccccc1SCc1ccc(-c2noc(C(F)(F)F)n2)cc1 [Compound 1.15]     56 to 61 °C
4  O=S(=O)(CC(F)(F)F)c1ccc(-c2noc(C(F)(F)F)n2)cc1 [Compound 3.5]   117 to 122 °C
5  FC(F)(F)c1nc(-c2ccc(Sc3ccccc3)cc2)no1 [Compound 1.1]     59 to 62 °C
6  FC(F)(F)c1nc(-c2ccc(SCc3ccccc3)nc2)no1 [Compound 1.21]     66 to 68 °C
7  Cc1ccc(C)c(S(=O)(=O)c2ccc(-c3noc(C(F)(F)F)n3)cc2)c1 [Compound 3.6]   118 to 125 °C
8  FC(F)(F)c1nc(-c2ccc(Sc3ccccc3)nc2)no1 [Compound 1.7]   124 to 129 °C

* * *

tested on: Glomerella lagenarium (Colletotrichum lagenarium); assay: Glomerella lagenarium (Colletotrichum lagenarium) liquid culture / cucumber / preventative (anthracnose); type: cell-based; settings: Colletotrichum orbiculare; 20 ppm in the applied formulation; liquid culture in PDB, 24° C.; 3 to 4 days after application; read-out: disease control compared to untreated control (inhibition of growth measured photometrically)
Collected inhibition at 20 ppm values appear next to each entry.
VALUE_KIND: inhibition at 20 ppm

>>> print(df.to_string())
                                   compound  observed_value
0  [O-][S+](Cc1ccc(-c2noc(C(F)(F)F)n2)cc1)c1ccccc1F (stereo not shown)           ≥ 80%
1  COc1ccc([S+]([O-])c2ccc(-c3noc(C(F)(F)F)n3)cc2)cc1 (stereo not shown)           ≥ 80%
2  [O-][S+](CCc1ccccc1)c1ccc(-c2noc(C(F)(F)F)n2)cc1 (stereo not shown)           ≥ 80%
3  [O-][S+](c1ccc(-c2noc(C(F)(F)F)n2)cc1)C1CCCCC1 (stereo not shown)           ≥ 80%

* * *

Collected melting point values appear next to each entry.
VALUE_KIND: melting point

In [3]: df
Out[3]:
                                   compound     value_kind  observed_value
0  Cc1ccccc1S(=O)(=O)c1ccc(-c2noc(C(F)(F)F)n2)cc1 [Compound 3.17]  melting point   109 to 115 °C
1  Cc1ccccc1[S+]([O-])c1ccc(-c2noc(C(F)(F)F)n2)cc1 (stereo not drawn) [Compound 2.24]  melting point   100 to 103 °C
2  Fc1c(CSc2ccccc2)ccc(-c2noc(C(F)(F)F)n2)c1F [Compound 1.26]  melting point     52 to 58 °C
3  O=S(=O)(c1ccc(-c2noc(C(F)(F)F)n2)cc1)C1CCCC1 [Compound 3.16]  melting point     85 to 92 °C
4  Fc1cc(-c2noc(C(F)(F)F)n2)cc(F)c1CSc1ccccc1 [Compound 1.27]  melting point     50 to 55 °C
5  Cc1cc(-c2noc(C(F)(F)F)n2)ccc1SCc1ccccc1 [Compound 1.22]  melting point     66 to 72 °C
6  COc1ccc([S+]([O-])c2ccc(-c3noc(C(F)(F)F)n3)cc2)cc1 (stereo not drawn) [Compound 2.2]  melting point     93 to 98 °C
7  COc1ccc(S(=O)(=O)c2ccc(-c3noc(C(F)(F)F)n3)cc2)cc1 [Compound 3.2]  melting point   108 to 116 °C
8  [O-][S+](Cc1ccccc1)c1ccc(-c2noc(C(F)(F)F)n2)cc1 (stereo not drawn) [Compound 2.4]  melting point   178 to 181 °C
